For each entry below, report its solubility kinetic value.
conditions: buffer; pH 7.4; 200.0 µM

In plain terms, O=C(O)c1ccccc1OCc1nc2ccccc2s1 has a documented solubility kinetic of < 0.6 µg/mL

In plain terms, Cc1c(C(=O)N2CCOCC2)cc(C(C)(C)C)n1-c1ccccc1 has a documented solubility kinetic of 45.3 µg/mL

In plain terms, CC1(C2CC(C(F)(F)F)n3nc(C(=O)O)cc3N2)CC1 (stereo unspecified) has a documented solubility kinetic of > 43.4 µg/mL

In plain terms, Fc1ccc(COc2ccc(C(=S)N3CCCC3)cc2)cc1 has a documented solubility kinetic of < 0.7 µg/mL

In plain terms, O=S(=O)(c1ccccc1)N1CCN2CCCC2C1 (stereo unspecified) has a documented solubility kinetic of > 40 µg/mL

In plain terms, O=c1c2ccccc2ncn1-c1ccc([N+](=O)[O-])cc1Cl has a documented solubility kinetic of 17 µg/mL

* * *

For each entry below, report its log10 of solubility kinetic value.
details: buffer; pH 7.4; 200.0 µM
Log10 applied to solubility kinetic; unit prior to transform: µg/mL.

In plain terms, Clc1cccc(OCCCCN2CCCCC2)c1 has a documented log10 of solubility kinetic of 1.49

In plain terms, CCOC(=O)/C(C#N)=C/C=C1\C=Cc2ccccc2N1CC has a documented log10 of solubility kinetic of -0.15

In plain terms, COc1ccc(NC(=O)c2cccc(Oc3ccccc3)c2)cn1 has a documented log10 of solubility kinetic of 0.94

In plain terms, CCOc1ccc(/C=C(\C#N)C(=O)NC2CC2)c(OCC)c1 has a documented log10 of solubility kinetic of 0.68

In plain terms, COC(=O)c1c(-c2ccccc2)noc1C has a documented log10 of solubility kinetic of 1.26

In plain terms, CC(=O)N(C)c1ccc(N=Cc2cc3c(cc2[N+](=O)[O-])OCO3)cc1 has a documented log10 of solubility kinetic of 1.64

In plain terms, Cc1c(Cl)ccc(S(=O)(=O)Nc2cccnc2)c1Cl has a documented log10 of solubility kinetic of 0.71

In plain terms, COc1ccc(OCCC(=O)OCC(=O)NCCc2ccccc2)cc1 has a documented log10 of solubility kinetic of 1.72

In plain terms, COc1ccc(OC)c(N2C(=O)CCCC2=O)c1 has a documented log10 of solubility kinetic of 1.39

In plain terms, COC(=O)c1cccc(NC(=O)c2cc3ccccc3o2)c1 has a documented log10 of solubility kinetic of 1.13

In plain terms, C=CCC1(N(C(C)=O)c2ccccc2C)CCCCC1 has a documented log10 of solubility kinetic of 0.83

In plain terms, Cc1ccc(NC(=O)CCCc2c[nH]c3ccccc23)nc1 has a documented log10 of solubility kinetic of 0.58

In plain terms, O=C1NC(=S)S/C1=C\c1ccc2ccccc2c1 has a documented log10 of solubility kinetic of 0.04

In plain terms, CC(=O)c1ccc(NC(=O)CN2c3cccc4cccc(c34)S2(=O)=O)cc1 has a documented log10 of solubility kinetic of 0.86

In plain terms, CC(OC(=O)C1CCCCC1)C(=O)Nc1cccc(Cl)c1 (centres undefined) has a documented log10 of solubility kinetic of 1.35

In plain terms, CN(C)c1ccc(C(=O)/C=C/c2cccnc2)cc1 has a documented log10 of solubility kinetic of 0.83

In plain terms, Cc1ccc(CN2CCN(c3ncccn3)CC2)c(C)c1 has a documented log10 of solubility kinetic of 1.29

In plain terms, COc1ccccc1NC(=O)Nc1nc2ccc(S(N)(=O)=O)cc2s1 has a documented log10 of solubility kinetic of 0.20

In plain terms, CC1(C)[C@H]2CC[C@]1(C)[C@@H](OC(=O)C[N+]1(C)CCOCC1)C2.[I-] has a documented log10 of solubility kinetic of 1.78

In plain terms, O=S(=O)(c1ccc(F)cc1)N1CCc2ccccc21 has a documented log10 of solubility kinetic of 1.28

In plain terms, Cc1cc2oc(=O)cc(CN3CCCCC3C)c2cc1C (centres undefined) has a documented log10 of solubility kinetic of 1.25

In plain terms, CC(=O)Nc1ccc(S(=O)(=O)N[C@@H](C)C(=O)OCC(=O)c2ccc[nH]2)cc1 has a documented log10 of solubility kinetic of 1.63

In plain terms, CC(=O)c1cc(C)ccc1OC(=O)CN1C(=O)c2ccccc2C1=O has a documented log10 of solubility kinetic of 1.39

In plain terms, C=CCOC(=O)c1ccc(N2CCN(c3ccccc3)CC2)nc1 has a documented log10 of solubility kinetic of -0.05

In plain terms, Cc1nc([N+](=O)[O-])cn1CC(=O)Nc1ccc(F)c(Cl)c1 has a documented log10 of solubility kinetic of 0.08

* * *

For each entry below, report its solubility kinetic value.
details: buffer; pH 7.4; 200.0 µM

In plain terms, CCOC(=O)/C(C)=C1\NC(C)(C)Cc2ccccc21.I has a documented solubility kinetic of 18.7 µg/mL

In plain terms, Cc1ccc(C(NC(=O)Nc2ccccn2)C(Cl)(Cl)Cl)cc1F (stereo unspecified) has a documented solubility kinetic of < 0.3 µg/mL

In plain terms, NS(=O)(=O)c1cccc(NC(=O)CSc2nnc3n2CCCCC3)c1 has a documented solubility kinetic of > 57.2 µg/mL

In plain terms, CCOc1ccccc1NC(=O)COC(=O)C1CCC(=O)N1 (stereo unspecified) has a documented solubility kinetic of > 45.9 µg/mL

In plain terms, Cc1ccnc(NC(=O)C(C)N2C(=O)c3ccccc3C2=O)c1 (stereo unspecified) has a documented solubility kinetic of 39.4 µg/mL

In plain terms, O=C(O)c1ccc[nH]c1=S has a documented solubility kinetic of > 23.3 µg/mL

* * *

conditions: buffer; pH 7.4; 200.0 µM
For each entry below, report its solubility kinetic value.

In plain terms, Cc1ccc(SCC(=O)NCC2CCCO2)cc1 (configuration not stated) has a documented solubility kinetic of > 39.8 µg/mL

In plain terms, Cc1cccc(C)c1NC(=O)C1CCCCN1C.Cl (configuration not stated) has a documented solubility kinetic of > 42.4 µg/mL

In plain terms, COc1cc2ncnc(N[C@H](C)c3ccccc3)c2cc1OC has a documented solubility kinetic of > 46.4 µg/mL

In plain terms, CCOC(CNc1ncnc2c1cnn2C)OCC has a documented solubility kinetic of > 39.8 µg/mL

In plain terms, Cc1ccc(NC(=O)C2CCN(c3nc(C)cc(C)n3)CC2)cc1 has a documented solubility kinetic of 2.4 µg/mL

In plain terms, Cc1cc(C(=O)Nc2ncc(C)s2)c2ccccc2n1 has a documented solubility kinetic of 18 µg/mL

In plain terms, Cn1c(=O)c(=O)n(C)c2cc([N+](=O)[O-])c([N+](=O)[O-])cc21 has a documented solubility kinetic of > 42 µg/mL

In plain terms, CCCC1(CCC)NC(=O)N(CC(=O)Nc2ccc3c(c2)OCCO3)C1=O has a documented solubility kinetic of > 56.3 µg/mL

In plain terms, COC(=O)c1ccc(-c2noc(CN(C)CC3CCCCO3)n2)cc1 (configuration not stated) has a documented solubility kinetic of > 51.8 µg/mL

In plain terms, O=C(/C=C/c1ccccc1F)N1CCN(c2ccccn2)CC1 has a documented solubility kinetic of 35.8 µg/mL

In plain terms, CCOc1cccc(-c2nnc(SCC(=O)NC3CC3)n2C)c1 has a documented solubility kinetic of > 49.9 µg/mL

In plain terms, Cc1ccc(S(=O)(=O)N2CCN(CC(=O)N3CCCC3)CC2)c(C)c1 has a documented solubility kinetic of > 54.8 µg/mL

* * *

For each entry below, report its solubility kinetic value.
conditions: buffer; pH 7.4; 200.0 µM
Please respond with the number in µg/mL and leave the unit unwritten.

In plain terms, N#Cc1ccccc1NC(=O)COC(=O)/C=C/c1ccc(S(=O)(=O)N2CCOCC2)cc1 has a documented solubility kinetic of 5.7

In plain terms, C=CCNC(=O)/C(=C/c1cccc([N+](=O)[O-])c1)NC(=O)c1ccco1 has a documented solubility kinetic of 43.3

In plain terms, O=C1/C(=C/c2ccco2)SC(=S)N1CC1CCCO1 (centres undefined) has a documented solubility kinetic of 6.6

In plain terms, Cc1ccc(C)c(/C=C2\N=C(c3ccccc3F)OC2=O)c1 has a documented solubility kinetic of 11.8

In plain terms, CC1CCc2cc(F)ccc2N1C(=O)c1cccs1 (centres undefined) has a documented solubility kinetic of 30.8

In plain terms, O=C1CSC(=S)N1c1ccc(F)c(Cl)c1 has a documented solubility kinetic of 1.3

In plain terms, O=C(O)c1ccc(S(=O)(=O)N2CCOCC2)o1 has a documented solubility kinetic of 33.9

In plain terms, O=Cc1ccc(-n2cc(C=O)c3ccccc32)cc1 has a documented solubility kinetic of 2.4

In plain terms, O=[N+]([O-])c1cccc(CN2CCCCCC2)c1 has a documented solubility kinetic of 31.7

In plain terms, COC(=O)c1ccc(-c2noc(CN3CCCC(CNC(C)=O)C3)n2)cc1 (centres undefined) has a documented solubility kinetic of 43.3

In plain terms, CC(CCc1ccccc1)NS(=O)(=O)c1ccccc1Cl (centres undefined) has a documented solubility kinetic of 20

In plain terms, Cc1ccc(C(=O)NCCc2c[nH]c3ccccc23)c(C)c1 has a documented solubility kinetic of 23

In plain terms, CCOC(=O)c1cc2c(ccn2C)n1CC(=O)Nc1ccc(F)cc1 has a documented solubility kinetic of 3.1

In plain terms, CCCCN1C(=O)c2ccc(C(=O)NCc3ccco3)cc2C1=O has a documented solubility kinetic of 17.9

In plain terms, N#CC(=NCc1cccnc1)C1=C(O)c2ccccc2C1=O has a documented solubility kinetic of 6.4

In plain terms, O=C(Nc1nc2ccccc2s1)c1c(F)cccc1Cl has a documented solubility kinetic of 0.6

In plain terms, CC(NS(=O)(=O)/C=C/c1ccccc1)C(=O)O (centres undefined) has a documented solubility kinetic of 34.2

In plain terms, CCC(CC)C(=O)c1c[nH]c(C(=O)NC2CCCCCC2)c1 has a documented solubility kinetic of 2

In plain terms, Cc1cc(C)cc(C(=O)N2CCN(c3ccccn3)CC2)c1 has a documented solubility kinetic of 42.7

In plain terms, CC(C)(C)NC(=O)C1CC1(c1ccccc1)c1ccccc1 (centres undefined) has a documented solubility kinetic of 2.8

In plain terms, C=CCOc1ccccc1CN1CCC(Cc2ccccc2)CC1 has a documented solubility kinetic of 31.7

In plain terms, Cc1ccc(S(=O)(=O)N2CCOCC2)cc1C(=O)NCCc1ccc(Cl)cc1 has a documented solubility kinetic of 26

In plain terms, Cc1cc(C(=O)N2CCCC(C(=O)c3cc(F)ccc3F)C2)c(C)o1 (centres undefined) has a documented solubility kinetic of 42.5

In plain terms, N/C(=N\OC(=O)c1cccs1)C1(c2ccc(Cl)cc2Cl)CC1 has a documented solubility kinetic of 12.3

In plain terms, CC(C)NC(=O)c1ccc(CN2CCC(Cc3ccccc3)CC2)cc1 has a documented solubility kinetic of 47.3

In plain terms, COc1ccc(/C=C(\C#N)C(=O)OCC(=O)NC2CC2)cc1 has a documented solubility kinetic of 10.1
